Values compiled from PubChem BioAssay (NCATS).

assay: Quantitative High-Throughput drug screen in 47 multiple myeloma cell lines against the NCATS MIPE library collection: VP6_DJ cell viability assay (AID 1919867); conditions: ATP luminescence, 48 h; series mostly up to 45.8 µM; also: nearly all actives have a fitted effect of over 40% in size
Inconclusive results are not listed. The source made the active and inactive calls. Calls follow the shape of the dose curve; as a rule, active = well fitted cell-killing curve with a large enough effect; inconclusive = small, poorly fitted or top-dose-only effect, or effect the other way; inactive = no such curve, though single readings can be large or run the other way.
Field 'call' accepts active, inactive

Examples with answers:
State the result this test recorded for CC(c1cc2ccccc2s1)N(O)C(N)=O (stereo not given) .
active

Request: CCN(CC)CCCC(C)Nc1nc(C)cc(Nc2ccc3nc(C)cc(N)c3c2)n1 (stereo not given)
active

Request: `COc1ccc([C@@H]2CC(=O)c3c(O)cc(O[C@@H]4O[C@H](CO[C@@H]5O[C@@H](C)[C@H](O)[C@@H](O)[C@@H]5O)[C@@H](O)[C@H](O)[C@@H]4O)cc3O2)cc1O`
inactive

---
State the result this test recorded for `CC1(C)CNc2cc(NC(=O)c3cccnc3NCc3ccncc3)ccc21` .
active

Request: `CCCC(CCC)C(=O)O`
active

====

system: WaGa; assay: qHTS assay to identify novel small-molecules to repurpose for Merkel cell carcinoma treatment (AID 1296009); settings: MCC and control cell lines, CellTiter-Glo viability, 72 h; series mostly up to 46 µM; also: nearly all actives have a fitted effect of over 60% in size
Inconclusive results are not listed. Activity calls are given as the source filed them. The call rests on the fitted dose curve; in most records, active means well fitted inhibition curve with a large enough effect; inconclusive means small, poorly fitted or top-dose-only effect; inactive means flat fitted curve, though single readings scatter.
Field 'call' accepts active, inactive

Examples with answers:
State the result this test recorded for `O=C(C1CC1)N1CC[C@@H](Cn2c(-c3ccc(-c4ccc5occc5c4)cc3)nc3cnccc32)C1` .
inactive

Request: `N=c1nc(N2CCCCC2)cc(N)n1O`
inactive

Request: `COc1c(Cl)cc2c([nH]c3cnccc32)c1NC(=O)c1cccnc1C`
inactive

Request: CCN(CC)CCCC(C)Nc1ccnc2cc(Cl)ccc12 (stereo unspecified)
inactive

Request: `Cc1cc2c(C(C)C)c(O)c(O)c(C=O)c2c(O)c1-c1c(C)cc2c(C(C)C)c(O)c(O)c(C=O)c2c1O`
active

---
State the result this test recorded for COc1ccc2nc(S(=O)Cc3ncc(C)c(OC)c3C)[nH]c2c1 (stereo unspecified) .
inactive

Request: `Clc1cccc(Cl)c1NC1=NCCN1`
inactive

Request: `O=NN(CCCl)C(=O)NCCCl`
inactive

Request: `N#CC[C@H](C1CCCC1)n1cc(-c2ncnc3[nH]ccc23)cn1`
inactive

Request: `NC(=O)c1ccc(-c2nc(-c3ccc4c(c3)OCCO4)c(-c3ccccn3)[nH]2)cc1`
inactive

Request: `COc1ccc(-c2oc3cc(OC)ccc3c2C(=O)c2ccc(C#N)cc2)cc1`
inactive

====

assay: qHTS for differential inhibitors of proliferation of Plasmodium falciparum line HB3 (AID 1886); conditions: Plasmodium falciparum HB3 proliferation inhibition; series mostly up to 28.7 µM;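 also: parasites grown with compound for 72 h before SYBR Green readout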
Results filed as inconclusive are left out. Calls of active or inactive are those of the source. Calls come from the whole dose curve; as a rule, active = well fitted curve in the direction sought with a large enough effect; inconclusive = small, poorly fitted or top-dose-only effect, or another doubt; inactive = no such curve, though single readings can be large or run the other way.
Field 'call' accepts true = active, false = inactive

State the result this test recorded for `CC(=O)Oc1ccccc1C(=O)O` .
false

Request: `Clc1cccc(Cl)c1NC1=NCCN1`
false

Request: `Cc1oncc1C(=O)Nc1ccc(C(F)(F)F)cc1`
false

Request: `CN1CCN(CCCN2c3ccccc3Sc3ccc(C(F)(F)F)cc32)CC1`
true

Request: O=C1CCC(N2C(=O)c3ccccc3C2=O)C(=O)N1 (configuration not stated)
false

Request: `CCCCNc1cc(C(=O)O)cc(S(N)(=O)=O)c1Oc1ccccc1`
false

Next molecule, please.
State the result this test recorded for `Nc1nc2c(ncn2COCCO)c(=O)[nH]1` .
false

====

experiment: Quantitative High-Throughput drug screen in 47 multiple myeloma cell lines against the NCATS MIPE library collection: Karpas620_DSMZ cell viability assay (AID 1918959); conditions: Karpas620 myeloma viability, CellTiter-Glo ATP luminescence, 48 h; series mostly up to 45.8 µM; also: potency is read from the fitted curve at half-maximal effect; nearly all actives have a fitted effect of over 30% in size
Inconclusive results are not listed. Activity calls are given as the source filed them. The call rests on the fitted dose curve; in most records, active means well fitted cell-killing curve with a large enough effect; inconclusive means small, poorly fitted or top-dose-only effect, or effect the other way; inactive means no such curve, though single readings can be large or run the other way.
Field 'call' accepts T = active, F = inactive

State the result this test recorded for `C#Cc1cccc(Nc2ncnc3cc(OCCOC)c(OCCOC)cc23)c1` .
T

====

System: CP247
Test: qHTS profiling for inhibitors of Plasmodium falciparum proliferation (AID 504749); also: nearly all actives have a fitted effect of over 60% in size
Conditions: P. falciparum in erythrocytes, SYBR Green DNA, 72 h; series mostly up to 28.7 µM
Experimental: NIH National Institute of Allergy and Infectious Diseases [NIAID] NIH Chemical Genomics Center [NCGC] […] Because mature erythrocytes lack DNA, only Plasmodium-derived DNA is detected. NCGC Assay Protocol Summary: The SYBR Green viability assay was adapted from a method described previously (Plouffe et al., 2008). […] The following morning, fluorescence intensity at 485(14) nm excitation and 535(25) nm emission wavelengths was measured on an EnVision (Perkin Elmer) plate reader. […]
Results filed as inconclusive are left out. Active and inactive are the calls of the source. Calls follow the shape of the dose curve; as a rule, active = well fitted inhibition curve with a large enough effect; inconclusive = small, poorly fitted or top-dose-only effect; inactive = flat fitted curve, though single readings scatter.
Field 'call' accepts active, inactive

Examples with answers:
State the result this test recorded for `N#Cc1ccc(C(c2ccc(C#N)cc2)n2cncn2)cc1` .
inactive

Request: `NC[C@H](O)c1ccc(O)c(O)c1`
inactive

Request: CC(C[N+](C)(C)C)OC(N)=O (configuration not stated)
inactive

Request: `Cc1cc2c(C(C)C)c(O)c(O)c(C=O)c2c(O)c1-c1c(C)cc2c(C(C)C)c(O)c(O)c(C=O)c2c1O`
active

Request: `NNCCc1ccccc1`
inactive

---
State the result this test recorded for `CNC[C@H](O)c1cccc(O)c1` .
inactive

Request: `Cn1cnc([N+](=O)[O-])c1Sc1ncnc2nc[nH]c12`
active

Request: `Cc1ccc(N(CC2=NCCN2)c2cccc(O)c2)cc1`
inactive

Request: `O=c1[nH]cnc2[nH]ncc12`
inactive

Request: `CCCc1nn(C)c2c(=O)[nH]c(-c3cc(S(=O)(=O)N4CCN(C)CC4)ccc3OCC)nc12`
inactive

Request: Oc1ccc(C2CNCCc3c2cc(O)c(O)c3Cl)cc1 (configuration not stated)
inactive

Request: `CC(C)C[C@H](NC(=O)[C@@H](O)[C@H](N)Cc1ccccc1)C(=O)O`
active

====

molecular target: Papain (Carica papaya) (UniProt P00784); assay: Primary qHTS assay for inhibitors of the protease papain (AID 1645873); conditions: papain Z-FR-AMC cleavage, AMC fluorescence; series mostly up to 49.8 µM;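 also: papain turnover of Z-FR-AMC read as the AMC fluorescence gain over 10 min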; also: potency is read from the fitted curve at half-maximal effect
Sequence (P00784 whole entry, looked up): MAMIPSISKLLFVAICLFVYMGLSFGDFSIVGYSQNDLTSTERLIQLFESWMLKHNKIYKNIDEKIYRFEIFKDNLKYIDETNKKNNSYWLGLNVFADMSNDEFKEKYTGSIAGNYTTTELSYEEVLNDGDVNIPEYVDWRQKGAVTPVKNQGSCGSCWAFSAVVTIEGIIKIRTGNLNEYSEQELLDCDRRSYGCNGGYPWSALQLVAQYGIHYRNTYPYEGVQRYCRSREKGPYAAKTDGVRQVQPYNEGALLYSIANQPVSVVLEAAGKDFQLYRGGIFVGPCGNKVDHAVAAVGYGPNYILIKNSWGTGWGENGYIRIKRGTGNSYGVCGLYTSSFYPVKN
Results filed as inconclusive are left out. The source made the active and inactive calls. Calls follow the shape of the dose curve; as a rule, active = well fitted inhibition curve with a large enough effect; inconclusive = small, poorly fitted or top-dose-only effect; inactive = no such curve, though single readings can be large or run the other way.
measurement.type: Potency

A selection of reference data follows.
Potency lookup needed for `CS(=O)(=O)c1cccc(CNc2nc(Nc3ccc4c(c3)CCC(=O)N4)ncc2C(F)(F)F)c1` , thanks.
inactive

Request: `CCCCNc1cc(C(=O)O)cc(S(N)(=O)=O)c1Oc1ccccc1`
20 µM (active)

Request: `NNCCc1ccccc1`
inactive

Request: OC(CCN1CCCCC1)(c1ccccc1)C1CC2C=CC1C2 (stereo unspecified)
inactive

Request: `CC(C)C[C@H](NC(=O)[C@@H](O)[C@H](N)Cc1ccccc1)C(=O)O`
inactive

Read the next record carefully.
Potency lookup needed for OC(CN1CCC(Cc2ccc(F)cc2)CC1)c1ccc(Cl)cc1 (stereo unspecified) , thanks.
inactive

====

system: CP215; experiment: qHTS profiling for inhibitors of Plasmodium falciparum proliferation (AID 504749); also: nearly all actives have a fitted effect of over 60% in size; conditions: P. falciparum in erythrocytes, SYBR Green DNA, 72 h; series mostly up to 28.7 µM
Results filed as inconclusive are left out. Activity calls are given as the source filed them. Calls follow the shape of the dose curve; as a rule, active = well fitted inhibition curve with a large enough effect; inconclusive = small, poorly fitted or top-dose-only effect; inactive = flat fitted curve, though single readings scatter.
Field 'call' accepts 1 (active), -1 (inactive)

State the result this test recorded for `CC(C)C[C@H](NC(=O)[C@@H](O)[C@H](N)Cc1ccccc1)C(=O)O` .
1

Request: `Cc1[nH]c(=O)c(C#N)cc1-c1ccc2nccn2c1`
-1

---
State the result this test recorded for `N[C@@H]1CONC1=O` .
-1

Request: CC(C)NCC(O)COc1ccc(COCCOC(C)C)cc1 (stereo not given)
-1

Request: COc1ccc2nc(S(=O)Cc3ncc(C)c(OC)c3C)[nH]c2c1 (stereo not given)
-1

Request: NCCCC(N)(C(=O)O)C(F)F (stereo not given)
-1

Request: `NCCc1ccc(O)c(O)c1`
-1

====

Reported z-score values follow for various compounds
Assay: qHTS for identification of novel therapeutic agents for treatment of microphthalmiaassociated transcription factor (MiT) renal cell carcinoma (RCC) (AID 1963991);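 also: curves scaled with 100% = DMSO viability and 0% = empty wells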
Details: TFE3-RCC viability, CellTiter-Glo, 48 h; measured here: UOK145 Z-AUC; stronger effect = lower value
Method: PI: Marston Linehan Ph.D. Urologic Oncology Branch, Center for Cancer Research (CCR) National Cancer Institute (NCI), National Institute of Health (NIH), Bethesda, Maryland […] 6; Detection; Luminescence; ViewLux plate reader (PerkinElmer). […] 1. Quantitative high-throughput screening (qHTS) of 1912 pharmacologically defined small molecule compounds was conducted on three TFE3-fusion cell lines bearing three different fusion partners (UOK109, UOK124, UOK145). […]
Records with an inconclusive call do not appear.
// response body must contain only the number

A selection of reference data follows.
z-score lookup needed for Cc1c(C)c2c(c(C)c1O)CCC(C)(COc1ccc(CC3SC(=O)NC3=O)cc1)O2 (stereo not given) , thanks.
-0.301

Request: `NC(=O)c1ccc(-c2nc(-c3ccc4c(c3)OCO4)c(-c3ccccn3)[nH]2)cc1`
0.197

Request: COc1ccc(CC2=NN3C([C@@H](CCc4ccccc4)[C@@H](C)O)=NC(C)C3C(=O)N2)cc1OC (stereo not given in full)
0.717

Request: `NC[C@H](O)c1ccc(O)c(O)c1`
0.785

Read the next record carefully.
z-score lookup needed for Cc1ccccc1C(C(=O)NC1CCCC1)N(C(=O)Cn1cnc2ccccc21)c1cccc(F)c1 (stereo not given) , thanks.
0.533
